Entry source: PubChem BioAssay (NCI)

The entries below come with measured TGI values attached.
# Tested on: HT29 colon
# assay_name: NCI tumour cell line growth inhibition, 48 h

molecule: CCOC(=O)c1c(SCCCN2CCCCC2)n(-c2ccccc2)c(=S)n(-c2ccccc2)c1=O
study_target: HT29 colon
TGI: 37.5 µM
--
molecule: CS(=O)(=O)c1ccc(NNc2cc(=O)[nH]c(=O)[nH]2)cc1
study_target: HT29 colon
TGI: > 100 µM
--
molecule: CCCCC(=O)Nc1ccc2cc(C(=O)OC)c(Cl)nc2n1
study_target: HT29 colon
TGI: > 100 µM
--
molecule: N#C/C(=C/N1C(=O)/C(=C/c2ccc([N+](=O)[O-])cc2)SC1=S)c1nc2ccccc2s1
study_target: HT29 colon
TGI: > 100 µM
--
molecule: C=CCN=C1N=C(C)C(C(=O)OCC)S1 (stereo unspecified)
study_target: HT29 colon
TGI: > 100 µM

Notebook: "CC(C)c1nc(Cl)nc(Cl)c1Cl" , TGI read as 2.52 µM

Lookup result for Cc1c2cccc(Sc3ccccc3)c2c2c3c(cccc13)[S+](c1ccccc1)C2 (stereo unspecified) ; measured TGI: 7.38 µM

Lab note: "CNCCC/C=C1\c2cc3c(cc2-c2c1c1cc(OC)c(OC)cc1c(=O)n2C)OCO3" gave TGI of 12 µM

Query "Cc1cccc(-c2cc(=O)c3cc(C)c(C)c(C(=O)O)c3o2)c1" yields TGI of > 100 µM

Form: molecule = "CCO/C(O)=C(/C(=N)N1CCOCC1)C(=O)Nc1cccc(Cl)c1" ; TGI = > 100 µM

Item: "N=C(N)c1ccc(-c2ccc(-c3cccs3)o2)cc1" | TGI: 3.7 µM

Sample "COc1ccc(-n2cnc3c(NCC(=O)O)ncnc32)cc1" ; TGI observed: > 100 µM

Entry under test: "COC(=O)CNC(=O)CCSc1nnc(COc2ccc(Cl)cc2)n1-c1ccccc1" . Its TGI was > 100 µM

// sample "Cc1cc(NS(=O)(=O)c2ccc(NC(=O)c3ccc(Cl)c4c(Nc5ccc(S(N)(=O)=O)cc5)c5ccccc5nc34)cc2)no1" , its TGI was 44.7 µM

Record "N=c1c2ccccc2nc2oc3ccccc3n12" . Reported TGI: > 100 µM

// field: TGI; key: "COc1cc(Nc2cnc3ccc(N)cc3n2)cc(OC)c1OC" ; value = > 100 µM

Field TGI (entry COC(=O)C1C(O)C(C)C(O)C(C)(O)/C=C/C=C(C)C(=O)Nc2c(C)c(OC(C)=O)c3c(c2O)C(=O)C(C)=C2OCOC(=C23)C(C)=CC(C)(O)C(O)C(C)C1OC(C)=O (stereo unspecified) ) reads > 92.7 µM

TGI reading for "Cc1ccc(-n2c(=S)[nH]c3ccc(Br)cc3c2=O)cc1" : > 100 µM

Sample CCC1(CN(C)C)CC/C(=C\c2ccc(OC)cc2)C1=O (stereo unspecified) ; TGI observed: > 100 µM

get_value(item= "Clc1ccc(-c2nc(-c3ccccc3)cn3ccnc23)cc1" , readout=TGI) returns 56.7 µM

// CCC(C)C1=NC(C(=O)N/C=C\c2c[nH]c3cc(Br)c(Br)cc23)(C(C)C)NC1=O (stereo unspecified) : TGI value = 44.4 µM

----------
Recorded TGI values for a group of compounds are listed next.
# Tested on: KM12 colon
# assay_name: NCI tumour cell line growth inhibition, 48 h

Check out these entries, answers already filled in.
compound: CC1(C=O)C(=O)CCC2(C)C3CC(=O)OC3CCC12 (stereo not drawn)
study_target: KM12 colon
result: > 100 µM

compound: COc1cccc(C2c3cc4c(cc3OC(NNc3ccccc3)C2C)OCO4)c1OC (stereo not drawn)
study_target: KM12 colon
result: > 100 µM

compound: CCC(C)C1=NC(C(=O)N/C=C\c2c[nH]c3cc(Br)c(Br)cc23)(C(C)C)NC1=O (stereo not drawn)
study_target: KM12 colon
result: 44.3 µM

compound: Nc1c(C(=O)c2cccc(-c3ccncc3)c2)cnn1-c1ccc(F)cc1
study_target: KM12 colon
result: > 25 µM

compound: O=C(O)c1ccccc1/C=C1\Cc2ccccc2C1=O
study_target: KM12 colon
result: > 100 µM

compound: Nc1cc2ccccc2c(O)c1O
study_target: KM12 colon
result: 18.9 µM

compound: CN(C)c1ccc(N=Nc2ccc(Br)cn2)c(O)c1
study_target: KM12 colon
result: > 100 µM

compound: COc1ccc(-c2cn(-c3cccc(C(=O)/C=C/c4cc(OC)c(OC)c(OC)c4)c3)c(=O)[nH]2)cc1
study_target: KM12 colon
result: 2.75 µM

TGI on KM12 colon for "O=C(Cc1ccc(OCc2ccccc2)cc1)NCc1ccc2c(c1)OCO2" is > 100 µM

TGI for KM12 colon with input "N=C(N)c1ccc(-c2ccc(-c3ccc(F)cc3)s2)nc1" equals 3.57 µM

Record O=c1cc(O)ccn1C1C=C(CO)C(O)C1O (stereo not drawn) / KM12 colon, TGI recorded as > 625 µM

Bench note, KM12 colon: entry "Cc1ccc2cc3cccc(C(=O)NCCN(C)C)c3nc2c1" , its TGI = 10 µM

Summary: "NC(N)=NS(=O)(=O)c1ccc(NC(=O)c2cccc3cc4ccccc4nc23)cc1" , KM12 colon, TGI = > 100 µM

Measured TGI for this entry "O=c1oc2ccccc2c(O)c1/C=N\c1nc(-c2ccc(O)c(O)c2)cs1" on KM12 colon: 29.6 µM

TGI of "CC(C)CNC(=O)c1ccc(NC(=O)N(CC(C)C)C(=O)c2ccc(N)c(OCCCN)c2)c(OCCCN=C(N)N)c1" , assay on KM12 colon, is > 62.5 µM

Item "Cc1ccc(-c2cc(=S)n(-c3ccccc3)c3nc(=S)n(-c4ccccc4)c(N)c23)cc1" was tested on KM12 colon; the reported TGI is > 100 µM

Item "COC(=O)CC(=O)OC" ; assay system KM12 colon; TGI reported as > 100 µM

Note to self: TGI of CCC1(CN(C)C)CC/C(=C\c2ccc(OC)cc2)C1=O (stereo not drawn) with KM12 colon was > 100 µM
